System: 317291-083-R-J1-PDC complex spheroids, viability;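 also: spheroids exposed to compounds for one week before readout; percent viability relative to DMSO vehicle wells taken as 100%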
assay_name: Anticancer human tumor 317291-083-R-J1-PDC patient-derived soft tissue sarcoma cell line growth inhibition [GQUAD]
stated_conditions: second compound 0.0316 µM; first compound 1 µM; hits give low values
quantity_name: viability, T/C

Guide cases for viability, T/C, answers given:
>>> result("O=C(c1cc(Cc2n[nH]c(=O)c3ccccc23)ccc1F)N1CCN(C(=O)C2CC2)CC1 + Cc1cnc(CNC(=O)c2c(=O)c3ccc(N4CCCN(C)CC4)nc3n3c2sc2ccccc23)cn1")
"77.5%"
>>> result("CC(=O)O[C@H]1C(=O)[C@@]2(C)[C@H]([C@H](OC(=O)c3ccccc3)[C@]3(O)C[C@H](OC(=O)[C@H](O)[C@@H](NC(=O)c4ccccc4)c4ccccc4)C(C)=C1C3(C)C)[C@]1(OC(C)=O)CO[C@@H]1C[C@@H]2O + CN(C)c1ccc(Nc2c3ccc(NC(=O)CCN4CCCC4)cc3nc3cc(NC(=O)CCN4CCCC4)ccc23)cc1")
"14.7%"

Now consider the entry below.
Summary line: CCCS(=O)(=O)Nc1ccc(F)c(C(=O)c2c[nH]c3ncc(-c4ccc(Cl)cc4)cc23)c1F + CN(C)c1ccc(Nc2c3ccc(NC(=O)CCN4CCCC4)cc3nc3cc(NC(=O)CCN4CCCC4)ccc23)cc1 , 317291-083-R-J1-PDC complex spheroids, viability, reported viability, T/C = 102%

src = PubChem BioAssay AID2060497
